Experimental target: CVB3 3C^pro (Coxsackievirus B3, UniProt Q5UEA2)
Run description: FRET peptide cleavage assay
Assay type: biochemical
pIC50: −log10 of the molar value.
Decide by pIC50: equal to or exceeding 5 means y, less means n.

Worked set:
O=C(/C=C/c1ccccc1)N[C@H](C(=O)N[C@@H](C[C@@H]1CCNC1=O)C(=O)C(=O)NCc1ccccc1)C1CC1 [11q]; n
O=C(/C=C/c1ccccc1)N[C@@H](CC1CC1)C(=O)N[C@@H](C[C@@H]1CCNC1=O)C(=O)C(=O)NCc1ccccc1 [11s]; y

Determine whether this molecule has pIC50 no lower than 5: CC(C)(C)OC(=O)N[C@@H](C[C@@H]1CCNC1=O)C(=O)C(=O)NCc1ccccc1 [11f]
n

Similarly, O=C(/C=C/c1ccccc1)N[C@@H](CC1CCCCC1)C(=O)N[C@@H](C[C@@H]1CCNC1=O)C(=O)C(=O)NCc1ccccc1 [11r] ?
y
